Biological target: Vasopressin V1 receptor subtype in Human Platelet Membranes (Homo sapiens)
Construct: Frozen platelet rich plasma (PRP), received from the Hudson Valley Blood Services, are thawed to room temperature; tissue Hudson Valley Blood Services
Sequence (P37288 whole entry): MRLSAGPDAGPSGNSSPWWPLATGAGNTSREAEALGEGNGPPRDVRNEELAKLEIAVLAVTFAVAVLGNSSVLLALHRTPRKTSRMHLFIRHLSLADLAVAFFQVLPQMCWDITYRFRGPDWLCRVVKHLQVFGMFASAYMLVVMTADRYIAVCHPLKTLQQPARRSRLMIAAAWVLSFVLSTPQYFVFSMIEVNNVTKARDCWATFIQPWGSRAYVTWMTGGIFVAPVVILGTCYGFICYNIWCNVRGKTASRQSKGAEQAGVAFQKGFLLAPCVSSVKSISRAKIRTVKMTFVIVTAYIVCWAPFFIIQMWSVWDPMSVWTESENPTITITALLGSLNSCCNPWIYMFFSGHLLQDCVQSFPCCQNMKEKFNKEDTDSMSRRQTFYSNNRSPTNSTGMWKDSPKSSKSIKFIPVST
Test: Binding to Vasopressin V1 receptor subtype in Human Platelet Membranes
Settings: * V1 receptor subtype in human platelet
Experimental: Radioligand Binding Experiments with Human Platelet Membranes Platelet Source: Hudson Valley Blood Services, Westchester Medical Center, Valhalla, N.Y. Platelet Membrane Preparation […] In wells of 96 well format microtiter plate, add 100 μl of 50.0 mM Tris.HCl buffer containing 0.2% BSA and a mixture of protease inhibitors (aprotinin, leupeptin etc.). […] Non specific binding is measured in the presence of 1.0 μM of unlabeled ligand (Manning or Arg^8 Vasopressin). […]
Can you tell me IC50 for the items I'm about to list?
Could you give the number and then its unit, please?

Cc1c(F)cccc1C(=O)Nc1ccc(C(=O)N2Cc3cccn3Cc3ccccc32)cn1 [Example 4] ... 44 nM

Consider the record given below.
For Cc1ccc(F)cc1C(=O)Nc1ccc(C(=O)N2Cc3cccn3Cc3ccccc32)cn1 [Example 1] , what is its reported IC50? 20 nM
